pIC50 data for Acetylcholinesterase (Homo sapiens) follow.
// field semantics: pIC50 = negative decimal log of concentration (mol/L)

Query :: What value of measured pIC50 is listed for c1ccc2c(c1)c(OCC1CCCCC1)nn2CC1CCCCC1 ?
Result :: 5.15

Query :: What value of measured pIC50 is listed for O=[N+]([O-])c1ccc2c(c1)c(OCc1cccc3ccccc13)nn2Cc1cccc2ccccc12 ?
Result :: 5.17
